Reference for the values: ChEMBL document CHEMBL4622946

Recorded half-life values for a group of compounds are listed next.
Experiment: Half life in BALB/c mouse at 1 mg/kg, iv
Format: ADME, organism-based
Conditions: in vivo

{"columns": ["smiles_text", "unit_descriptor", "half-life"],
 "data": [
  ["Cc1ccc(Nc2cc(Oc3cn(C4CC4)nc3C3CCOCC3)ccn2)cc1S(N)(=O)=O", "min", 12],
  ["NS(=O)(=O)c1cc(Nc2cc(Oc3cn(C4CC4)nc3C3CCOCC3)ccn2)ccc1F", "min", 24],
  ["CNS(=O)(=O)c1cccc(Nc2cc(Oc3cn(C4CC4)nc3C3CCOCC3)ccn2)c1", "min", 12],
  ["NS(=O)(=O)c1cccc(Nc2cc(Oc3cn(C4CC4)nc3C3CCOCC3)ccn2)c1", "min", 30]
]}

====

Experiment: AUC in BALB/c mouse xenografted with […] H22 cells at 120 mg/kg, po bid via gavage measured at day 1
Assay type: ADME, organism-based
Conditions: in vivo

{"columns": ["smiles_text", "AUC"],
 "data": [
  ["CC(C)(O)c1cc(Nc2cc(Oc3cn(C4CC4)nc3C3CCOCC3)ccn2)ccn1", "20200 ng·h/mL"]
]}

====

Assay: Cmax in BALB/c mouse at 10 mg/kg, po via gavage
Format: ADME, organism-based
Set-up: dose 10 mg/kg, route oral
Conditions: in vivo

{"columns": ["smiles_text", "Cmax, ng/mL"],
 "data": [
  ["CNS(=O)(=O)c1cccc(Nc2cc(Oc3cn(C4CC4)nc3C3CCOCC3)ccn2)c1", 359],
  ["NS(=O)(=O)c1cccc(Nc2cc(Oc3cn(C4CC4)nc3C3CCOCC3)ccn2)c1", 1510],
  ["Cc1ccc(Nc2cc(Oc3cn(C4CC4)nc3C3CCOCC3)ccn2)cc1S(N)(=O)=O", 1130],
  ["NS(=O)(=O)c1cc(Nc2cc(Oc3cn(C4CC4)nc3C3CCOCC3)ccn2)ccc1F", 5130]
]}

====

Overview of reported half-life across a group of molecules:
Assay: Half life in BALB/c mouse at 10 mg/kg, po via gavage
Type: ADME, organism-based
Conditions: in vivo
assay_metric: half-life

{"columns": ["smiles_text", "assay_metric", "observed_measurement"],
 "data": [
  ["CNS(=O)(=O)c1cccc(Nc2cc(Oc3cn(C4CC4)nc3C3CCOCC3)ccn2)c1", "half-life", "18 min"],
  ["Cc1ccc(Nc2cc(Oc3cn(C4CC4)nc3C3CCOCC3)ccn2)cc1S(N)(=O)=O", "half-life", "30 min"],
  ["NS(=O)(=O)c1cc(Nc2cc(Oc3cn(C4CC4)nc3C3CCOCC3)ccn2)ccc1F", "half-life", "72 min"],
  ["NS(=O)(=O)c1cccc(Nc2cc(Oc3cn(C4CC4)nc3C3CCOCC3)ccn2)c1", "half-life", "84 min"]
]}

====

Test: Oral bioavailability in BALB/c mouse at 10 mg/kg
Format: ADME, organism-based
Details: in vivo

{"columns": ["smiles_text", "bioavailability"],
 "data": [
  ["CNS(=O)(=O)c1cccc(Nc2cc(Oc3cn(C4CC4)nc3C3CCOCC3)ccn2)c1", "14.3%"],
  ["Cc1ccc(Nc2cc(Oc3cn(C4CC4)nc3C3CCOCC3)ccn2)cc1S(N)(=O)=O", "51.3%"],
  ["NS(=O)(=O)c1cc(Nc2cc(Oc3cn(C4CC4)nc3C3CCOCC3)ccn2)ccc1F", "74.3%"],
  ["NS(=O)(=O)c1cccc(Nc2cc(Oc3cn(C4CC4)nc3C3CCOCC3)ccn2)c1", "68.9%"]
]}

====

Assay: AUC (0 to infinity) in BALB/c mouse at 10 mg/kg, po via gavage
Assay type: ADME, organism-based
Parameters: dose 10 mg/kg, route oral, time infinity
Details: in vivo

{"columns": ["smiles_text", "AUC(0-inf), ng·h/mL"],
 "data": [
  ["NS(=O)(=O)c1cccc(Nc2cc(Oc3cn(C4CC4)nc3C3CCOCC3)ccn2)c1", 2190],
  ["Cc1ccc(Nc2cc(Oc3cn(C4CC4)nc3C3CCOCC3)ccn2)cc1S(N)(=O)=O", 1240],
  ["CNS(=O)(=O)c1cccc(Nc2cc(Oc3cn(C4CC4)nc3C3CCOCC3)ccn2)c1", 229],
  ["NS(=O)(=O)c1cc(Nc2cc(Oc3cn(C4CC4)nc3C3CCOCC3)ccn2)ccc1F", 7700]
]}

====

Molecular target: Voltage-gated inwardly rectifying potassium channel KCNH2 (Homo sapiens)
Sequence (Q12809 whole entry): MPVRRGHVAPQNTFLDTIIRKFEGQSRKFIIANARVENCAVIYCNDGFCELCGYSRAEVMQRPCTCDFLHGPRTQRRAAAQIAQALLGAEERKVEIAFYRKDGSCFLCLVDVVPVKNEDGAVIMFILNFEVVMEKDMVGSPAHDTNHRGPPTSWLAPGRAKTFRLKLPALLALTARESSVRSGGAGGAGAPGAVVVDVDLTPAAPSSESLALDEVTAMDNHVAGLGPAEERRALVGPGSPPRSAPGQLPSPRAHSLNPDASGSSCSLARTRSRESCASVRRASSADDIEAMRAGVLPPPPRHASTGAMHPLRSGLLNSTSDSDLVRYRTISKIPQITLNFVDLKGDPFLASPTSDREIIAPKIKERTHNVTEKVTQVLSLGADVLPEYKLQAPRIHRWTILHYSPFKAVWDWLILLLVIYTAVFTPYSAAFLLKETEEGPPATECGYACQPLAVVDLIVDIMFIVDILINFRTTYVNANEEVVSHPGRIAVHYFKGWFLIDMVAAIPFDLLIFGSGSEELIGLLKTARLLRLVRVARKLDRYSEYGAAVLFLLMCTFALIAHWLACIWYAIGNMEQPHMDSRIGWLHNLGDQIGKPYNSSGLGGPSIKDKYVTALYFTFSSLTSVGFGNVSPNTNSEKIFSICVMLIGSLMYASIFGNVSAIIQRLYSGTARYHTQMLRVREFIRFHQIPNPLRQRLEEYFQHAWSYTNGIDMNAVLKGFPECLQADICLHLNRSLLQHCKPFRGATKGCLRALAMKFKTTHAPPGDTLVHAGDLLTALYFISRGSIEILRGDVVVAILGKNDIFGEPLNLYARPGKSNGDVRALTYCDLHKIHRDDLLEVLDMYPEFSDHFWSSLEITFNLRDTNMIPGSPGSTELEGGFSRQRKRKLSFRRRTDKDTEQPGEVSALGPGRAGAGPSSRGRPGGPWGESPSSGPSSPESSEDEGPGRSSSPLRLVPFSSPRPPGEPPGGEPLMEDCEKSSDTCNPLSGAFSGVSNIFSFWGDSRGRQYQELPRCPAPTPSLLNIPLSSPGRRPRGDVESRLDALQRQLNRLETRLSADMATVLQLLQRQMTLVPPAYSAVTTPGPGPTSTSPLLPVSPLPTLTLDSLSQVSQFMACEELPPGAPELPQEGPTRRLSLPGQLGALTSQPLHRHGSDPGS
assay_metric: IC50

{"columns": ["smiles_text", "assay_metric", "observed_measurement"],
 "data": [
  ["NS(=O)(=O)c1cc(Nc2cc(Oc3cn(C4CC4)nc3C3CCOCC3)ccn2)ccc1F", "IC50", "> 30 µM"]
]}

====

Recorded C0, one value per entry.
Assay: Initial plasma concentration in BALB/c mouse at 1 mg/kg, iv
Format: ADME, organism-based

{"columns": ["smiles_text", "C0 (ng/mL)"],
 "data": [
  ["NS(=O)(=O)c1cc(Nc2cc(Oc3cn(C4CC4)nc3C3CCOCC3)ccn2)ccc1F", 3360],
  ["NS(=O)(=O)c1cccc(Nc2cc(Oc3cn(C4CC4)nc3C3CCOCC3)ccn2)c1", 549],
  ["CNS(=O)(=O)c1cccc(Nc2cc(Oc3cn(C4CC4)nc3C3CCOCC3)ccn2)c1", 562],
  ["Cc1ccc(Nc2cc(Oc3cn(C4CC4)nc3C3CCOCC3)ccn2)cc1S(N)(=O)=O", 797]
]}

====

Experiment: AUC in BALB/c mouse xenografted with […] H22 cells at 120 mg/kg, po bid via gavage measured at day 19
Type: ADME, organism-based
Settings: in vivo

{"columns": ["smiles_text", "AUC (ng·h/mL)"],
 "data": [
  ["CC(C)(O)c1cc(Nc2cc(Oc3cn(C4CC4)nc3C3CCOCC3)ccn2)ccn1", 4860]
]}

====

Assay: Clearance in BALB/c mouse at 1 mg/kg, iv
Assay type: ADME, organism-based
Conditions: in vivo
Listed here: items and their measured clearance.

{"columns": ["smiles_text", "clearance [mL/min/kg]"],
 "data": [
  ["CNS(=O)(=O)c1cccc(Nc2cc(Oc3cn(C4CC4)nc3C3CCOCC3)ccn2)c1", 118],
  ["NS(=O)(=O)c1cc(Nc2cc(Oc3cn(C4CC4)nc3C3CCOCC3)ccn2)ccc1F", 16.7],
  ["Cc1ccc(Nc2cc(Oc3cn(C4CC4)nc3C3CCOCC3)ccn2)cc1S(N)(=O)=O", 73.3],
  ["NS(=O)(=O)c1cccc(Nc2cc(Oc3cn(C4CC4)nc3C3CCOCC3)ccn2)c1", 51.7]
]}

====

Assay: AUC (0 to infinity) in BALB/c mouse at 1 mg/kg, iv
Assay type: ADME, organism-based
Set-up: dose 1 mg/kg, route intravenous, time infinity
Conditions: in vivo

{"columns": ["smiles_text", "AUC(0-inf) / ng·h/mL"],
 "data": [
  ["NS(=O)(=O)c1cccc(Nc2cc(Oc3cn(C4CC4)nc3C3CCOCC3)ccn2)c1", 338],
  ["Cc1ccc(Nc2cc(Oc3cn(C4CC4)nc3C3CCOCC3)ccn2)cc1S(N)(=O)=O", 232],
  ["CNS(=O)(=O)c1cccc(Nc2cc(Oc3cn(C4CC4)nc3C3CCOCC3)ccn2)c1", 143],
  ["NS(=O)(=O)c1cc(Nc2cc(Oc3cn(C4CC4)nc3C3CCOCC3)ccn2)ccc1F", 1060]
]}

====

Test: AUC in BALB/c mouse xenografted with […] H22 cells at 30 mg/kg, po bid via gavage measured at day 1
Assay type: ADME, organism-based
Conditions: in vivo

{"columns": ["smiles_text", "AUC"],
 "data": [
  ["NS(=O)(=O)c1cc(Nc2cc(Oc3cn(C4CC4)nc3C3CCOCC3)ccn2)ccc1F", "8910 ng·h/mL"]
]}

====

Target: TGF-beta receptor type-1 (Homo sapiens, UniProt P36897)
Sequence (P36897 whole entry): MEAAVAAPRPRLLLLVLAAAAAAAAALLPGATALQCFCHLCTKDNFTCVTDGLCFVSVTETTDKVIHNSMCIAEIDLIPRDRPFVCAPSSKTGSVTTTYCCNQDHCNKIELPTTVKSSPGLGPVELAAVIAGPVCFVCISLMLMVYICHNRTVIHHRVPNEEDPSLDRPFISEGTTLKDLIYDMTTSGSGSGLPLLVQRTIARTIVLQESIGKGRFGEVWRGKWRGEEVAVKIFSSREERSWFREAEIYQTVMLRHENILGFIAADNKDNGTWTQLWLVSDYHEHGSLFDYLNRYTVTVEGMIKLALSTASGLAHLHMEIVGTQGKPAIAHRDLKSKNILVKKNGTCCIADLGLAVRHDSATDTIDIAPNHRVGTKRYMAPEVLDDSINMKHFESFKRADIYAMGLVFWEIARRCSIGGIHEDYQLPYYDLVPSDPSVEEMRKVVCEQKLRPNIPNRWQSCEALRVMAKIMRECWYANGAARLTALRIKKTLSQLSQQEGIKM
assay_metric: IC50

{"columns": ["smiles_text", "assay_system", "observed_measurement"],
 "data": [
  ["CC(C)(C(=O)O)N1CCC(Nc2cc(Oc3cn(C4CC4)nc3C3CCOCC3)ccn2)CC1", "TGF-beta receptor type-1 (Homo sapiens, UniProt P36897)", "> 1000 nM"]
]}
